Target: human Y2 receptor (human) (UniProt P49146)
Sequence (P49146 whole entry): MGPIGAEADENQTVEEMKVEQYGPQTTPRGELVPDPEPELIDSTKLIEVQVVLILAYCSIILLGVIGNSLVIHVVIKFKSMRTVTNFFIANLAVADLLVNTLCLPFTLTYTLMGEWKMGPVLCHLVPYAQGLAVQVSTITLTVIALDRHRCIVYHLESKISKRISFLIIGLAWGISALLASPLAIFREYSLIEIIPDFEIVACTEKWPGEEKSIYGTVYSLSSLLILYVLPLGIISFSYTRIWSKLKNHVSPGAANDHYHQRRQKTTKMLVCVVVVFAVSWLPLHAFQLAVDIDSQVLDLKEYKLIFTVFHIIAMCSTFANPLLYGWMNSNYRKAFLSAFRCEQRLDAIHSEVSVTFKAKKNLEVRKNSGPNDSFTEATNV
Test: RBA: displacement of [125I]-PYY from hY2R/CHO membranes
Non-standard residues stand in square brackets, D forms with d. Arg(Me) = CNC(=N)NCCC[C@H](N)C(=O)O; 4Pal = N[C@@H](Cc1ccncc1)C(=O)O; Cha = N[C@@H](CC1CCCCC1)C(=O)O; Aib = CC(C)(N)C(=O)O
readout: IC50 Ratio (IC50 compound/IC50 PYY(3-36))
Reply with just the number.

Can you share its IC50 Ratio (IC50 compound/IC50 PYY(3-36))? I mean this binder: Ac-S[dP][Arg(Me)][4Pal][Cha][Aib]N[Arg(Me)][Aib]TRQR[Cha]-NH2 (SMILES CNC(=N)NCCC[C@H](NC(=O)[C@H](CC(N)=O)NC(=O)C(C)(C)NC(=O)[C@H](CC1CCCCC1)NC(=O)[C@H](Cc1ccncc1)NC(=O)[C@H](CCCNC(=N)NC)NC(=O)[C@H]1CCCN1C(=O)[C@H](CO)NC(C)=O)C(=O)NC(C)(C)C(=O)N[C@H](C(=O)N[C@@H](CCCNC(=N)N)C(=O)N[C@@H](CCC(N)=O)C(=O)N[C@@H](CCCNC(=N)N)C(=O)N[C@@H](CC1CCCCC1)C(N)=O)[C@@H](C)O) [Ac-[D-Pro24, Arg(Me)25,30, Pya(4)26, Cha27,36, Aib28,31]-PYY(23-36)] 1.5

Can you share its IC50 Ratio (IC50 compound/IC50 PYY(3-36))? I mean this binder: Ac-T[dP]R[4Pal][Cha][Aib]NK[Aib]TRQR[Cha]-NH2 (SMILES CC(=O)N[C@H](C(=O)N1CCC[C@@H]1C(=O)N[C@@H](CCCNC(=N)N)C(=O)N[C@@H](Cc1ccncc1)C(=O)N[C@@H](CC1CCCCC1)C(=O)NC(C)(C)C(=O)N[C@@H](CC(N)=O)C(=O)N[C@@H](CCCCN)C(=O)NC(C)(C)C(=O)N[C@H](C(=O)N[C@@H](CCCNC(=N)N)C(=O)N[C@@H](CCC(N)=O)C(=O)N[C@@H](CCCNC(=N)N)C(=O)N[C@@H](CC1CCCCC1)C(N)=O)[C@@H](C)O)[C@@H](C)O) [Ac-[Thr23, D-Pro24, Pya(4)26, Cha27,36, Aib28,31, Lys30]-PYY(23-36)] 1.1

Data credit: patent US20120172293A1
